targetUnderTest: T1, PAS #1(200)-IL1Ra
T1 construct: PASylated fusion protein produced in E. coli; Biotinylated for the SPR measurements with Fabs
T1 sequence (chain, as listed by the source limits assumed): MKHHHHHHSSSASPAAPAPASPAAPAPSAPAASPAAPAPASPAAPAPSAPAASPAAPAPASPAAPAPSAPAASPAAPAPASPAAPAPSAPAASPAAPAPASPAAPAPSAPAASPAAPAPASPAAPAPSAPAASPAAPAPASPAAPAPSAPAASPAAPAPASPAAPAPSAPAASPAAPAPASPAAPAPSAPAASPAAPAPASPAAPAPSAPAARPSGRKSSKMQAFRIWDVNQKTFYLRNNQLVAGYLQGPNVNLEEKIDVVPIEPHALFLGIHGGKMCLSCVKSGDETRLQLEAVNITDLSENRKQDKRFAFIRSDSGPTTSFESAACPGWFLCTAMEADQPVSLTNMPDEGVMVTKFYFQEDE
experimentNotes: SPR, MAb from hybridoma supernatant captured by anti-mouse antibody, antigen as analyte, bivalent analyte model
endpointName: Kd (nM)
# unit: nM | format: bare number

For Anti-PA(S) MAb 1.1 (antibody, V domains shown, Mouse monoclonal IgG from hybridoma (culture supernatant); also called anti-PAS 1.1 MAb; DSM ACC3365) VH: QVQLKESGPGLVAPSQSLSITCTVSGFSLTGYGVNWVRQPPGKGLEWLGMIWGDGITDYNSALKSRLSISKDNSKSQVFLKMNSLQTDDTARYYCARDYYGRRYYAMDYWGQGTSVTVSS VL: DIVLTQSPASLAVSLGQRATISCRASKSVSSSGYNYMFWYQQKPGQPPKLLIYLASNLESGVPDRFWGSGSGTDFTLNIHPVEEEDAATYYCQHSRELPLTFGAGTKLELKR the binder record lists Kd as 1
